Recorded melting point for the following compounds
Structures can show the parent of a compound that is named as a salt.

The examples below pair each entry with its known result.
compound | melting point
Clc1cc(OCC2CCNC2)cnc1Cl (stereo not shown) (as salt: toluenesulfonate) [Example 33] | 82 to 84 °C
Cl.c1ccc(-c2cncc(O[C@H]3CCNC3)c2)cc1 [Example 15] | 60 °C (dec.)
Cl.Nc1cccc(-c2cncc(O[C@H]3CCNC3)c2)c1 [Example 14] | 208 °C (dec.)
Cl.Clc1ccc(-c2cncc(O[C@H]3CCNC3)c2)cc1 [Example 21] | 65 °C (dec.)
Clc1ncc(OCC2CCNC2)cc1Br (stereo not shown) (as salt: toluenesulfonate) [Example 25] | 105 to 107 °C

Ask: Could you tell me which melting point is on file for Cl.Clc1ncc(O[C@H]2CCNC2)cc1Br [Example 22] ?
Reply: 178 to 180 °C

Ask: Which melting point value is on record for CCCCCCC#Cc1cncc(O[C@H]2CCNC2)c1.Cl [Example 8] ?
Reply: 66 to 68 °C

====

- System: mice
- assay.text: mouse hot plate paradigm (analgesia)
- Type: in vivo
- condition.context: mouse hot plate 55° C., intraperitoneal, dosed 30 minutes prior to testing, increase in tenth jump latency relative to control
Structures can show the parent of a compound that is named as a salt.
measured.property: minimally effective dose (MED), Dosage (µmol/kg)
Field: numeric (µmol/kg). Do not append units.

compound | minimally effective dose (MED), Dosage / µmol/kg
Cc1ccc(OC2CCCCNC2)cn1 (stereo not shown) [Example 29, dihydrochloride] | 62
Clc1ncc(OCC2CCNC2)cc1Br (stereo not shown) | 6.2

Ask: Which minimally effective dose (MED), Dosage reading was recorded for the compound Cc1ccc(S(=O)(=O)O)cc1.Cc1cncc(OCC2CCNC2)c1 (stereo not shown) ?
Reply: 19

Ask: Suppose we examine the compound CN1CCC(COc2cnc(Cl)c(Br)c2)C1 (stereo not shown) ; what minimally effective dose (MED), Dosage value has been reported?
Reply: 62

====

Counter-ions that a name gives are not always drawn.
Here the recorded melting point is given for each entry.

molecule | melting point
c1csc(-c2cncc(O[C@@H]3CCNC3)c2)c1 (as salt: hydrochloride) | 201 to 203 °C
Cl.c1ccc(-c2cncc(O[C@@H]3CCNC3)c2)cc1 | 60 °C (dec.)
Fc1ccc(OC2CCCCNC2)cn1 (stereo not drawn) (as salt: hydrochloride) | 121 to 122 °C

Ask: Entry `Cl.c1ncc(-c2cncc(O[C@H]3CCNC3)c2)cn1` has what melting point?
Reply: 60 to 62 °C

Ask: // lookup melting point for `CN1CC[C@@H](Oc2cncc(C=Cc3ccncc3)c2)C1.Cl`
Reply: 88 to 90 °C

Ask: Requested field: melting point. Item: `CN1CC[C@H](Oc2cnc(Cl)c(Br)c2)C1.Cl`
Reply: 180 °C (dec.)

Ask: Returns the measured melting point for the input molecule. Input: `CN1CC[C@H](Oc2cncc(-c3ccccc3)c2)C1.Cl`
Reply: 88 to 90 °C

Ask: Give the measured melting point of `CCCCCCC#Cc1cncc(O[C@@H]2CCN(C)C2)c1.Cl` .
Reply: 133 to 135 °C

Ask: Give the measured melting point of CC(C)(C)C=CC=Cc1cncc(O[C@H]2CCNC2)c1 (as salt: hydrochloride) .
Reply: 148 °C (dec.)

====

Counter-ions that a name gives are not always drawn.
measured.property: melting point

Some solved cases for reference:
compound | melting point
CN1CC[C@H](Oc2cnc(Cl)c(C=Cc3ccncc3)c2)C1.Cl | 106 to 108 °C
Cl.c1ncc(-c2cncc(O[C@@H]3CCNC3)c2)cn1 | 67 to 69 °C

Ask: I would be grateful if you could share the reported melting point for CN1CCC(COc2ccc(Cl)nc2)C1 (stereo not drawn) (as salt: toluenesulfonate) .
Reply: 75 to 77 °C

Origin of values: patent US20020151712A1
